APPLIED CONDITIONS: in ethanol, 318.15 K
QUANTITY MEASURED: solubility (mole fraction)
// return a plain number; no unit text

Query: Can you look up the measured solubility (mole fraction) of CN1c2ccccc2C(=O)N2CCc3c([nH]c4ccccc34)[C@H]21 for me?
Result: 0.000222

----------
APPLIED CONDITIONS: in ethanol, 293.15 K
QUANTITY MEASURED: solubility (mole fraction)

Query: Can you look up the measured solubility (mole fraction) of CN1c2ccccc2C(=O)N2CCc3c([nH]c4ccccc34)[C@H]21 for me?
Result: 8.95e-05

----------
APPLIED CONDITIONS: in ethanol, 288.15 K
QUANTITY MEASURED: solubility (mole fraction)
// return a plain number; no unit text

Query: Can you look up the measured solubility (mole fraction) of CN1c2ccccc2C(=O)N2CCc3c([nH]c4ccccc34)[C@H]21 for me?
Result: 7.31e-05

----------
APPLIED CONDITIONS: in ethanol, 283.15 K
QUANTITY MEASURED: solubility (mole fraction)
// return a plain number; no unit text

Query: Can you look up the measured solubility (mole fraction) of CN1c2ccccc2C(=O)N2CCc3c([nH]c4ccccc34)[C@H]21 for me?
Result: 5.94e-05

----------
APPLIED CONDITIONS: in methanol, 298.15 K
QUANTITY MEASURED: solubility (mole fraction)

Query: Can you look up the measured solubility (mole fraction) of CN1c2ccccc2C(=O)N2CCc3c([nH]c4ccccc34)[C@H]21 for me?
Result: 6.72e-05

----------
APPLIED CONDITIONS: in acetone, 323.15 K
QUANTITY MEASURED: solubility (mole fraction)

Query: Can you look up the measured solubility (mole fraction) of CN1c2ccccc2C(=O)N2CCc3c([nH]c4ccccc34)[C@H]21 for me?
Result: 0.000651

----------
APPLIED CONDITIONS: in ethanol, 323.15 K
QUANTITY MEASURED: solubility (mole fraction)

Query: Can you look up the measured solubility (mole fraction) of CN1c2ccccc2C(=O)N2CCc3c([nH]c4ccccc34)[C@H]21 for me?
Result: 0.000263

----------
APPLIED CONDITIONS: in isopropanol, 288.15 K
QUANTITY MEASURED: solubility (mole fraction)
// return a plain number; no unit text

Query: Can you look up the measured solubility (mole fraction) of CN1c2ccccc2C(=O)N2CCc3c([nH]c4ccccc34)[C@H]21 for me?
Result: 8.16e-05

----------
APPLIED CONDITIONS: in methanol, 308.15 K
QUANTITY MEASURED: solubility (mole fraction)

Query: Can you look up the measured solubility (mole fraction) of CN1c2ccccc2C(=O)N2CCc3c([nH]c4ccccc34)[C@H]21 for me?
Result: 0.000102

----------
APPLIED CONDITIONS: in isopropanol, 313.15 K
QUANTITY MEASURED: solubility (mole fraction)
// return a plain number; no unit text

Query: Can you look up the measured solubility (mole fraction) of CN1c2ccccc2C(=O)N2CCc3c([nH]c4ccccc34)[C@H]21 for me?
Result: 0.0002

----------
APPLIED CONDITIONS: in acetone, 318.15 K
QUANTITY MEASURED: solubility (mole fraction)
// return a plain number; no unit text

Query: Can you look up the measured solubility (mole fraction) of CN1c2ccccc2C(=O)N2CCc3c([nH]c4ccccc34)[C@H]21 for me?
Result: 0.000571
